Biological target: TraR (Agrobacterium tumefaciens, UniProt P33905)
Construct: Both of these reporter strains lack their native AHL synthases, yet retain active LuxR-type receptors (LasR and TraR proteins, respectively); endogenous in cells; host or cells: A. tumefaciens WCF47(pCF372)
Sequence (P33905 whole entry): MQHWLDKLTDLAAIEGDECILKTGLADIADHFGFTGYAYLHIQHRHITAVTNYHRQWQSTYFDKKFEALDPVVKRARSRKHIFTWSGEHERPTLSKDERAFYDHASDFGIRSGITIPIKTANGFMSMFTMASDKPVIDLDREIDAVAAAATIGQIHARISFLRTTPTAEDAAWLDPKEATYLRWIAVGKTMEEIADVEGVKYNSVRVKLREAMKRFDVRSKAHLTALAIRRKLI
Experiment: Agrobacterium tumefaciens reporter gene assay, WCF47(pCF372), β-galactosidase (Miller) readout
Format: cell-based
Conditions: screened against 100 nM 8b; sigmoidal dose-response curve fit; read-out: A. tumefaciens IC50
MEASURED_ATTRIBUTE: pIC50
For clarity, pIC50 is expressed as the negative log10 of concentration in mol/L.

Please fill in: pIC50 reported for O=C(Cc1ccc(Br)cc1)N[C@H]1CCOC1=O = 6.60
